protocolNotes: yeast display, Sf9 membrane polyspecificity reagent, FACS + sequencing; frameworks hold sequencing errors
observationType: polyreactivity (PSR sort gate)

Examples from the recorded data:
residues: QVQLVESGGGLVQARGSLRLSCAASGYIFAVYAMGWYRQANGKERELVAAITWSGGRTYYADSVKGRFTISLDNAKNTVYLQMNSLKPEDTAVYYCNARARSRKFYYWGQGTQVTVSS
polyreactivity (PSR sort gate): high polyreactivity
//
residues: QVQLVESGGGLVQAGGSLRLSCAASGRTFDVYAMGWYRQAPGKERELVATISYRSARTYYADSVKGRFTISRDNAKNTVYLQMNSLKPEDTAVYYCAAYFETWHGVGYWGQGTQVTVSS
polyreactivity (PSR sort gate): high polyreactivity
//
residues: QVQLVESGGGLVQAGGSLRLSCGASGSIRANMGSYRQAPGKETELVAVITTSGASTSYAVSVKGRFTISRDNAKNTVYLQMNRLKPEDTAVYYCAADIYYYPHTYYRDGYYYWGQGSQVTVSS
polyreactivity (PSR sort gate): low polyreactivity
//
residues: QVQHVESGGGLVQAGGRLSLICSASGGNIKFNAMGWYRQAPGKERELVAAITDGGSTYYADSVKGRFTISRDNAKNTVYLEMNSLKAEDTAVYYCNAEGVSLYGYDSGVDSGEDYWGQGTQVTVSS
polyreactivity (PSR sort gate): low polyreactivity

Then this sequence:
Prompt: // query polyreactivity (PSR sort gate) value for entry QVQLVDSGGGLVQAGGSLRLSCAASGFTFSAYAMGWYRQAPGKERELVAAISWSGSRTYYADSVKGRFTISRDNAKNTVYLQMNSLKPEDTAVYYCAKEPYDTFGFYEYDYWGQGTQVTVSS
Completion: low polyreactivity
